Reference for the values: the supplement of paper PMC3334620

# MEASUREMENT TARGET: Gcr1 (UniProt P07261)
# Sequence: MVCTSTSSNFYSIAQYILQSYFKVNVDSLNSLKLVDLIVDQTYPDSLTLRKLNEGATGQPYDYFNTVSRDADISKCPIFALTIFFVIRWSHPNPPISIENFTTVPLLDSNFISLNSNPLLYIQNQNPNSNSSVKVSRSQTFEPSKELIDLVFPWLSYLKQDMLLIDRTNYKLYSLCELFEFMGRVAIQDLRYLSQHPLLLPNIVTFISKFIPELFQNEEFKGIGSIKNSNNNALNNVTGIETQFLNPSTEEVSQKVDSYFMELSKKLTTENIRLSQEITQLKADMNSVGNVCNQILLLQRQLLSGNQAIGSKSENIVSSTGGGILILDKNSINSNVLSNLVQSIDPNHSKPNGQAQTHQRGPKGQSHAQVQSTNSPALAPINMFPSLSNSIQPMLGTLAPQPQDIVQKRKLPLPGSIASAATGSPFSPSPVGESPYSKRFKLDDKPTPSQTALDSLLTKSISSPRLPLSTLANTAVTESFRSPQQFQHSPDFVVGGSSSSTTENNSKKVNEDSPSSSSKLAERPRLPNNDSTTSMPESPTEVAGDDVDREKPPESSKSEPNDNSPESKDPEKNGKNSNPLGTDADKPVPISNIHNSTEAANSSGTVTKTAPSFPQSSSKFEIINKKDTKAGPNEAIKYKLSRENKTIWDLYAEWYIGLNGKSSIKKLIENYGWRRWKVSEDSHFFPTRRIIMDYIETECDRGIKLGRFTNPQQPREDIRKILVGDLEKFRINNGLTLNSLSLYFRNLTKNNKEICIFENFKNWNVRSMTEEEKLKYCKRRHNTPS
# MEASUREMENT DESCRIPTION: PBM E-score (8-mer binding enrichment) (E-score (-0.5 to 0.5)); higher = stronger / more preferred TF binding
# REPORTED CONDITIONS: protein concentration: 100 nM; construct: GST-full length
In all, about 33,000 sequences were measured (“E-score (-0.5 to 0.5)”: median about -0.011, highest 2% from about 0.28 on). This excerpt belongs to a sample that is enriched for the highest values.
Listing: PBM E-score of selected sequences
Please reply with the number alone, leaving off any unit.

Examples with answers:
ITEM SEQUENCE | MEASURE NAME | OBSERVED VALUE
CCCATCAC | PBM E-score | -0.136
AGCGTCAA | PBM E-score | 0.0252
CCCTCCGG | PBM E-score | -0.0226
ACAGTGGC | PBM E-score | 0.00948
GTAGTGGA | PBM E-score | 0.285
ATTGCGGG | PBM E-score | -0.0146
GATGGCCA | PBM E-score | -0.214
CAGCAGCC | PBM E-score | 0.359

Asked: Sample ACCACTCA — what was its PBM E-score?
Given back: -0.067

Asked: Item: AAAGCCAC
Given back: 0.0178

Asked: What about GCCACTCC ?
Given back: -0.045

* * *

# MEASUREMENT TARGET: Gcr1 (UniProt P07261)
# Sequence: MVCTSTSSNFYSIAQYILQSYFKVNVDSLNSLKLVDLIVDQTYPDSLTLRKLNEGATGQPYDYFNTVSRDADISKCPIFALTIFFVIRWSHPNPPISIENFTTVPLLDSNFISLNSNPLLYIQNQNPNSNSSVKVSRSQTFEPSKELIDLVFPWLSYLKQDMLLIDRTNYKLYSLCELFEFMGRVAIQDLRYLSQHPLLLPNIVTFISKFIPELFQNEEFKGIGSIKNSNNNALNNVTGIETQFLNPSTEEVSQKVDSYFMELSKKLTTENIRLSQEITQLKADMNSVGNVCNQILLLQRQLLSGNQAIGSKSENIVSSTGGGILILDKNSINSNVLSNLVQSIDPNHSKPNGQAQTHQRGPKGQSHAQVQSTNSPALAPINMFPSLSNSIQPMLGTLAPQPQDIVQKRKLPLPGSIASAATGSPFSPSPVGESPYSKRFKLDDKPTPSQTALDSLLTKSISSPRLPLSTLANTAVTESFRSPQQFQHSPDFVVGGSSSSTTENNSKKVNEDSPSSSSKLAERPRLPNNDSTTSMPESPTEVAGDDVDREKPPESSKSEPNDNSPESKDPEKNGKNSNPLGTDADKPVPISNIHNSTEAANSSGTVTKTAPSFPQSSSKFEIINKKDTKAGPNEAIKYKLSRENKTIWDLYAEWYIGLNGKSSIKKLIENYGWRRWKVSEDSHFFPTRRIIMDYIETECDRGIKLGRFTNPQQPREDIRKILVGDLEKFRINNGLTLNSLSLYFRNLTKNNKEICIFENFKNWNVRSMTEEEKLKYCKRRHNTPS
# MEASUREMENT DESCRIPTION: PBM E-score (8-mer binding enrichment) (E-score (-0.5 to 0.5)); higher = stronger / more preferred TF binding
# REPORTED CONDITIONS: protein concentration: 100 nM; construct: GST-full length
The full ranking holds about 33,000 sequences; the median of “E-score (-0.5 to 0.5)” is about -0.011, and the highest 2% start at about 0.28. This excerpt belongs to a sample that is enriched for the highest values.
Label Condition met when PBM E-score >= 0.04; otherwise Condition not met.

ITEM SEQUENCE | CATEGORY
TCCAAAGA | Condition met
ACGAATCC | Condition met
GGGGGAGA | Condition not met
CCGAATCC | Condition met

Asked: I'd appreciate it if you could say whether ATGCAAAC has PBM E-score at least equal to 0.04.
Given back: Condition met

Asked: And what about the sequence CGGATCCA ?
Given back: Condition met

Asked: Also ACAGACAA ?
Given back: Condition not met
